Test: amyloid nucleation score (Sup35N fusion, yeast selection) (log enrichment); library NNK2; higher = more nucleation; inactive = no reads after selection;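 note: zero at mode of non-aggregating sequences after 7 days selection at 30°C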
metricName: amyloid nucleation score

> print(dat)
          entrysequence                metricname  reported
1   NYFGKLLWLSLHDTCIVTF  amyloid nucleation score  inactive
2  IFMAKFSEIPTGPVIIMFYL  amyloid nucleation score  inactive
3              CKSLLVKC  amyloid nucleation score  inactive
4  EFSFHSWQLVTSCQEECCLD  amyloid nucleation score  inactive

Next up:
Qu. Item under review: SPALKPLGRMEYGVSGR . Reported amyloid nucleation score?
Ans. 0.072

---

Experiment: amyloid nucleation score (Sup35N fusion, yeast selection) (log enrichment); library NNK3; higher = more nucleation; inactive = no reads after selection
metricName: amyloid nucleation score

> print(dat)
              substance  reported
1  GWNLTHRMSTGSKLLCPLRI  inactive
2  CYQSLECAIMGYGLYVYSWC  inactive
3            AFYDNWKGNG     0.141
4  CSNLIIMKNSIERQTAFRYN     0.284
5              YVTGVLDC  inactive

Qu. Item under review: PGSHNS . Reported amyloid nucleation score?
Ans. inactive

Qu. Item under review: IPYDSSLLNSSNVCYLI . Reported amyloid nucleation score?
Ans. inactive

Qu. Item under review: YGYVIPSSQLPSWTLQRY . Reported amyloid nucleation score?
Ans. inactive

---

Experiment: amyloid nucleation score (Sup35N fusion, yeast selection) (log enrichment); library NNK2; higher = more nucleation; inactive = no reads after selection
metricName: amyloid nucleation score

A selection of reference data follows.
> print(dat)
              substance  reported
1              LRTIHYPC  inactive
2  TLMKVRVYSSYGKVHVGSLA      5.03
3       CVFRHTVIYGLGAGW      2.65
4  LFSKDVSRTLGPACFICEGT      2.78
5               FRRNKNN  inactive
6   YWVGIDRHFHGRQYCKAGA      1.11
7           CSFVLVFVIIQ      3.49
8        GWVLTSCGANGWRK    -0.371

Qu. Item under review: LTACRVLRLLKCSQRE . Reported amyloid nucleation score?
Ans. 4.68

Qu. Item under review: GVPRMTSVDSYRLLLFSASR . Reported amyloid nucleation score?
Ans. 0.19

Qu. Item under review: FYYSDDEFKCTVEIPVIYLI . Reported amyloid nucleation score?
Ans. -1.07

Qu. Item under review: VSNFSRYHLSCYSMVRLLLD . Reported amyloid nucleation score?
Ans. -0.532

---

Assay: amyloid nucleation score (Sup35N fusion, yeast selection) (log enrichment); library NNK3; higher = more nucleation; inactive = no reads after selection
metricName: amyloid nucleation score

A selection of reference data follows.
> print(dat)
              substance                metricname  reported
1       PVQRTLVRAVSESFR  amyloid nucleation score     0.899
2  YCVFGRNCDNKAVVLIGGNP  amyloid nucleation score  inactive
3  VFNFFYAEMGLMIKFWIDNL  amyloid nucleation score      1.08
4  RSTWFSFFRRTAHWKKALRP  amyloid nucleation score  inactive
5            LNGRYSLLWR  amyloid nucleation score  inactive
6   MQFEINRRVGHRSPNAYLE  amyloid nucleation score  inactive

Qu. Item under review: SRNLPVLTYLFLVKKWEWYP . Reported amyloid nucleation score?
Ans. inactive

Qu. Item under review: LHGHTWSWSLDWLSYMTAVQ . Reported amyloid nucleation score?
Ans. inactive

Qu. Item under review: ASIGIRFVDCLYSVLRRWMF . Reported amyloid nucleation score?
Ans. inactive

Qu. Item under review: RVFYIVDMVFIFKRCSIRES . Reported amyloid nucleation score?
Ans. inactive

Qu. Item under review: FYYRSFCRNGRRH . Reported amyloid nucleation score?
Ans. inactive

Qu. Item under review: LMPCALFSGVYEAGRHGSFL . Reported amyloid nucleation score?
Ans. 0.462

Qu. Item under review: YYFPWLYAKYSVVIINDMEP . Reported amyloid nucleation score?
Ans. 2.64
